# methodSummary: Incubation with fresh baboon plasma
# Format: in vitro ADME
# experimentalSetup: baboon plasma, 37° C., read-out: remaining conjugate among products
Catalogue of remaining at 24 h values

C[C@]12C=CC(=O)C=C1CC[C@@H]1[C@@H]2C(=O)C[C@@]2(C)[C@H]1CC[C@]2(O)C(=O)CO[P+]([O-])(O)OC[C@H]1O[C@@H](n2ccc(N)nc2=O)[C@@H](O)[C@@H]1O (some centres unmarked) [Prednisone-p-ara-C (II)]    74%

As a next step, examine the molecule that follows.
Item C[C@]12C=CC(=O)C=C1CC[C@@H]1[C@@H]2[C@@H](O)C[C@@]2(C)[C@H]1CC[C@]2(O)C(=O)CO[P+]([O-])(O)OC[C@H]1O[C@@H](n2ccc(N)nc2=O)[C@@H](O)[C@@H]1O (some centres unmarked) [Pred-p-ara-C (I)] has what recorded remaining at 24 h? 44%
